Biological target: pERK1/2 (Thr202/Tyr204), NCI-1H441 (KRAS G12V) (Homo sapiens, UniProt P01116, G12V)
Construct: pERK1/2 HTRF read-out
Sequence (P01116 1-188 isoform P01116-2 G12V): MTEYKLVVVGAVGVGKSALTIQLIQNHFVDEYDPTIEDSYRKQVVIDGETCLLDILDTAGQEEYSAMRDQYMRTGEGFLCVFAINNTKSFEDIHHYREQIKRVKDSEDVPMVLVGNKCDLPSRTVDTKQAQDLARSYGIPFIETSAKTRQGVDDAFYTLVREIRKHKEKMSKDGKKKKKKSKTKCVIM
Experiment: Assay of intracellular pERK1/2 (Thr202/Tyr204) phosphorylation in NCI-H441 cells (KRAS G12V)
Format: cell-based
Details: pERK1/2, 2 days, read-out: NCI-H441 (KRAS G12V) IC50

{"columns": ["molecule", "assay.target", "IC50"],
 "data": [
  ["CC(c1cccnc1N)N1CCOc2nc(-c3cc(O)cc4ccc(F)c(F)c34)c(F)c3nc(OC[C@@H]4CC(F)(F)CN4C)nc1c23 (single isomer, unassigned) [Compound 50]", "pERK1/2 (Thr202/Tyr204), NCI-1H441 (KRAS G12V) (Homo sapiens, UniProt P01116, G12V)", "> 1000 nM"],
  ["CC(c1cccnc1N)N1c2nc(OC[C@@]34CCCN3C[C@H](F)C4)nc3c(F)c(-c4c5cccnc5cc5[nH]ncc45)nc(c23)OC[C@@H]1C (some centres unmarked) [Compound 375]", "pERK1/2 (Thr202/Tyr204), NCI-1H441 (KRAS G12V) (Homo sapiens, UniProt P01116, G12V)", "94 nM"],
  ["[2H]C1([2H])CC[C@@]2(COc3nc4c5c(nc(-c6cc(N)c(F)c(C)c6C(F)(F)F)c(F)c5n3)OCCN4C(C)c3cccnc3N)C[C@@H](F)CN12 (some centres unmarked) [Compound 150]", "pERK1/2 (Thr202/Tyr204), NCI-1H441 (KRAS G12V) (Homo sapiens, UniProt P01116, G12V)", "0.3 nM"],
  ["Cc1cc(N)cc(-c2nc3c4c(nc(OC[C@@H]5CCCN5C5COC5)nc4c2F)N(C(C)c2cccnc2N)CCO3)c1C(F)(F)F (single isomer, unassigned) [Compound 160]", "pERK1/2 (Thr202/Tyr204), NCI-1H441 (KRAS G12V) (Homo sapiens, UniProt P01116, G12V)", "2 nM"],
  ["CC(c1cccnc1N)N1c2nc(OC[C@@]34CCCN3C[C@H](F)C4)nc3c(F)c(-c4cc(O)cc(Cl)c4C(F)(F)F)nc(c23)OC[C@@H]1C (some centres unmarked) [Compound 315]", "pERK1/2 (Thr202/Tyr204), NCI-1H441 (KRAS G12V) (Homo sapiens, UniProt P01116, G12V)", "4 nM"],
  ["CC(c1cccnc1N)N1CCOc2nc(-c3cc(O)cc(Cl)c3C3CC3)c(F)c3nc(OC[C@@]45CCCN4C[C@H](F)C5)nc1c23 (single isomer, unassigned) [Compound 43]", "pERK1/2 (Thr202/Tyr204), NCI-1H441 (KRAS G12V) (Homo sapiens, UniProt P01116, G12V)", "> 1000 nM"],
  ["C[C@H](c1cccnc1N)N1c2nc(OC[C@@]34CCCN3C[C@H](F)C4)nc3c(F)c(-c4c5ccccc5cc5[nH]ncc45)nc(c23)O[C@@H]2CCC[C@@H]21 [Compound 399]", "pERK1/2 (Thr202/Tyr204), NCI-1H441 (KRAS G12V) (Homo sapiens, UniProt P01116, G12V)", "57 nM"],
  ["[2H]C1([2H])CC[C@@]2(COc3nc4c5c(nc(-c6cc(N)cc(C)c6C(F)(F)F)c(F)c5n3)OCCN4C(C)c3cccnc3N)C[C@@H](F)CN12 (some centres unmarked) [Compound 231]", "pERK1/2 (Thr202/Tyr204), NCI-1H441 (KRAS G12V) (Homo sapiens, UniProt P01116, G12V)", "0.2 nM"],
  ["CC(c1cccnc1N)N1c2nc(OC[C@@]34CCCN3C[C@H](F)C4)nc3c(F)c(-c4c5c(cc6[nH]ncc46)CCC(F)(F)C5)nc(c23)OC[C@@H]1C (some centres unmarked) [Compound 376]", "pERK1/2 (Thr202/Tyr204), NCI-1H441 (KRAS G12V) (Homo sapiens, UniProt P01116, G12V)", "1 nM"],
  ["Cc1c(C(F)(F)F)c(-c2nc3c4c(nc(OC[C@@]56CCCN5C[C@H](F)C6)nc4c2F)N(C(C)c2cccnc2N)[C@@H](C)CO3)c2c(C)n[nH]c2c1F (some centres unmarked) [Compound 379]", "pERK1/2 (Thr202/Tyr204), NCI-1H441 (KRAS G12V) (Homo sapiens, UniProt P01116, G12V)", "0.3 nM"],
  ["Cc1cc2[nH]ncc2c(-c2nc3c4c(nc(OC[C@@]56CCCN5C[C@H](F)C6)nc4c2F)N(C(C)c2cccnc2N)[C@H]2CCC[C@H]2O3)c1C(F)(F)F (some centres unmarked) [Compound 389]", "pERK1/2 (Thr202/Tyr204), NCI-1H441 (KRAS G12V) (Homo sapiens, UniProt P01116, G12V)", "> 100 nM"]
]}
